Here, each record is paired with measured IC50 data.
tgt: JAK2 (Homo sapiens)
Construct: host or cells: baculovirus expression system
Sequence (O60674 whole entry): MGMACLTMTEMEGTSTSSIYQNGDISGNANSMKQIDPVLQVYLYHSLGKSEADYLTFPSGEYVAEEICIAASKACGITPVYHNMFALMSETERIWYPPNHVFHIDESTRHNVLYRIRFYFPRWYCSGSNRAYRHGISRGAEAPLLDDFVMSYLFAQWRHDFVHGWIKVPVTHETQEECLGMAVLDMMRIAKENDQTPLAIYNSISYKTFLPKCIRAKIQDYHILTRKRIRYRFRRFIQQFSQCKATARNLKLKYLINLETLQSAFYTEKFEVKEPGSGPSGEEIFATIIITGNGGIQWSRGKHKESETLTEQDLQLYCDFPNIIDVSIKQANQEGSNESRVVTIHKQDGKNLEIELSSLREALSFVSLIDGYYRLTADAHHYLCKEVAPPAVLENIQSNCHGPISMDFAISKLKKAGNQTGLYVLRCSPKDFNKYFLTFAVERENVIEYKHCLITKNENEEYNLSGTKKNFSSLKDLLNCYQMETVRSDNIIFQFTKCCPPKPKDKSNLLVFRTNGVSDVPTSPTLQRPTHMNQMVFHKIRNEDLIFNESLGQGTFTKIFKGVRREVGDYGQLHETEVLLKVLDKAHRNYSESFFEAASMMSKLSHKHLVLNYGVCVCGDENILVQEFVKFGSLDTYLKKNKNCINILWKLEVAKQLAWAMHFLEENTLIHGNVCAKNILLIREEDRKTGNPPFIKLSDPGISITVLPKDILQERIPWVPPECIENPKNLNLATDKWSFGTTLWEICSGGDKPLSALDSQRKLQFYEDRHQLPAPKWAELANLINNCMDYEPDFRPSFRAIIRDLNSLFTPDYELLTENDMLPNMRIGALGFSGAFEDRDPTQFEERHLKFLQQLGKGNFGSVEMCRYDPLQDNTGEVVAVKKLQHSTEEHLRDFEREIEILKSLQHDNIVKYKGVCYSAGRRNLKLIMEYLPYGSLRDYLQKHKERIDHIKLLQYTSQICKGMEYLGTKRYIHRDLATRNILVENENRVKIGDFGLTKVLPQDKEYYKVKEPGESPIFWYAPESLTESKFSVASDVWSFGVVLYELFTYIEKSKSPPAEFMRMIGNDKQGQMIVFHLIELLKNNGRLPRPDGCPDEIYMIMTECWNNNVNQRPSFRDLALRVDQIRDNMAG
assayRemarks: Recombinant Human JAK2 Kinase Assay (TRF)
Type: biochemical
conditionParameters: JAK2 kinase inhibition, 0.2 μM ATP; read-out: JAK2 Potency
observable: IC50

- CS(=O)(=O)Nc1cccc(-c2ccc3cnc(Nc4ccc(C5CCN(CCO)CC5)cc4)nn23)c1: < 100 nM
- CN1CCN(C)C(c2ccc(Nc3ncc4ccc(-c5cccc(S(=O)(=O)NC(C)(C)C)c5)n4n3)cc2)C1=O (stereo not shown): < 100 nM
- COc1cc(CN2CCC(O)CC2)ccc1Nc1ncc2ccc(-c3ccccc3N(C)S(C)(=O)=O)n2n1: 1000 to 10000 nM
- Cc1nc(-c2ccc3cnc(Nc4ccc(N5CCN(C)CC5)cc4)nn23)cn1C: < 100 nM
- COc1cc(C2CCNCC2)ccc1Nc1ncc2ccc(N3CC(c4ccccc4)CC3=O)n2n1 (stereo not shown): 1000 to 10000 nM
- COc1cc2c(cc1Nc1ncc3ccc(-c4ccccc4OC)n3n1)CN(C)C2: < 100 nM
- COC[C@H](O)CN1CCN(Cc2ccc(Nc3ncc4ccc(-c5ccccc5N(C)S(C)(=O)=O)n4n3)c(OC)c2)CC1: 1000 to 10000 nM
- COc1ccc(Nc2ncc3cc4ccccc4n3n2)cc1: < 100 nM
- COc1ccc(-c2ccc3cnc(Nc4ccc(CN5CCS(=O)(=O)CC5)cc4)nn23)cn1: < 100 nM
- COc1cc(CN2CCN(C[C@H](C)O)CC2)ccc1Nc1ncc2ccc(-c3ccccc3N(C)S(C)(=O)=O)n2n1: 1000 to 10000 nM
- CS(=O)(=O)c1cccc(-c2ccc3cnc(Nc4ccc5c(c4)CCC(N4CCOCC4)CC5)nn23)c1 (stereo not shown): < 100 nM
- CS(=O)(=O)c1cccc(-c2ccc3cnc(Nc4ccc(CN5CCS(=O)(=O)CC5)cc4)nn23)c1: < 100 nM
- Cc1nc2ccc(Nc3ncc4ccc(-c5cccc(S(=O)(=O)NC(C)(C)C)c5)n4n3)cc2s1: < 100 nM
- Cc1cc(Nc2ncc3ccc(-c4cccc(S(=O)(=O)NC(C)(C)C)c4)n3n2)ccc1C1CCN(CC(N)=O)CC1: < 100 nM
- COc1cc(OC2CCN(C)CC2)ccc1Nc1ncc2ccc(-c3ccccc3OC)n2n1: < 100 nM
- COc1ccc(Cl)cc1-c1ccc2cnc(Nc3ccc(C4CCN(C)CC4)cc3)nn12: < 100 nM
- COc1cc(N2CCC(N3CCOCC3)C2)ccc1Nc1ncc2ccc(-c3ccccc3OC)n2n1 (racemic): 100 to 1000 nM
- COc1ccccc1-c1ccc2cnc(Nc3ccc4c(c3OC)CN(C3COC3)C4)nn12: 100 to 1000 nM
- CC(C)(C)NS(=O)(=O)c1cccc(-c2ccc3cnc(Nc4ccc(C5CCC(O)CC5)cc4)nn23)c1 (stereo not shown): < 100 nM
- Fc1ncccc1-c1ccc2cnc(Nc3ccc(N4CCOCC4)cc3)nn12: < 100 nM
- CC(O)c1cccc(Nc2ncc3ccc(-c4cccc(S(=O)(=O)NC(C)(C)C)c4)n3n2)c1 (stereo not shown): < 100 nM
- COc1cc(C2CCN(C[C@@H](O)CO)CC2)c(F)cc1Nc1ncc2ccc(-c3ccccc3N(C)S(C)(=O)=O)n2n1: 1000 to 10000 nM
- COc1cc(N2CCC(N3CCOCC3)C2)ccc1Nc1ncc2ccc(-c3ccccc3N(C)S(C)(=O)=O)n2n1 (racemic): 100 to 1000 nM
- O=S(=O)(c1cccc(-c2ccc3cnc(Nc4ccc5nc(CO)[nH]c5c4)nn23)c1)N1CCOCC1: < 100 nM
- COc1ccc(-c2ccc3cnc(Nc4cnn(CCN5CCOCC5)c4)nn23)cn1: < 100 nM
- CN(c1ccccc1-c1ccc2cnc(Nc3ccc(C4CN(CC(N)=O)C4)cc3)nn12)S(C)(=O)=O: < 100 nM
- COc1ccc(-c2ccc3cnc(Nc4ccc(N5CCN(CCO)CC5)cc4)nn23)cn1: < 100 nM
- COc1ccccc1-c1ccc2cnc(Nc3ccc(N4CCN(C)CC4)cn3)nn12: < 100 nM
- COc1cc(C2CCN(C3COC3)CC2)ccc1Nc1ncc2ccc(-c3ccccc3OC)n2n1: 100 to 1000 nM
- COc1cc(CN2CCN(C(=O)CNC(=O)OC(C)(C)C)CC2)ccc1Nc1ncc2ccc(-c3ccccc3N(C)S(C)(=O)=O)n2n1: 100 to 1000 nM
- Cc1nn(C)cc1-c1ccc2cnc(Nc3ccc(N4CCN(C)CC4)cc3)nn12: < 100 nM

Values were extracted from patent US8471005B2.
